# System: MST4
# conditions: concentration: 1 μM, replicates: in singlicate; n = 1;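 also: KINOMEscan kinase panel screen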
experimental-endpoint: %Inh (%)
The figure you give is taken to be in %; do not add the unit.

> print(dat)
                                   compound  experimental.endpoint  result
1  Cc1cc(-c2ccnc(Nc3cccc(C#N)c3)n2)cc(C)c1O                   %Inh       9
2  N#CC1(c2cccc(C(=O)Nc3cccc(Oc4ccc5nc(NC(=O)C6CC6)sc5n4)c3)c2)CC1                   %Inh       4
3  CN(c1ccc(NC(=O)N2CCN(CCCN3CCOCC3)CC2)cc1)c1ccnc(Nc2ccc(CS(C)(=O)=O)cc2)n1.Cl                   %Inh       0

Ask: Requested field: %Inh. Item: Cl.Cl.NC(CNC(=O)c1cc(Br)c(-c2ccnc3[nH]ccc23)s1)c1ccccc1 (stereo not shown)
Result: 3

Ask: Requested field: %Inh. Item: `COc1ccc(C2=C(Nc3cccc(O)c3)C(=O)NC2=O)cc1`
Result: 0

Ask: Requested field: %Inh. Item: `Nc1ncnc2scc(-c3ccc(NC(=O)Cc4cc(F)ccc4F)cc3)c12.O=C(O)C(F)(F)F`
Result: 24

====

# System: SRMS
# conditions: concentration: 1 μM, replicates: in singlicate; n = 1
Each entry below carries its recorded %Inh.
The figure you give is taken to be in %; do not add the unit.

Please review the following examples before continuing.
> print(dat)
                                   compound  experimental.endpoint  units.of.measure  result
1  Cc1ccc(C)c(NC(=O)Nc2ccc(C)c(-c3ccc(C(=O)Nc4ccncc4)cc3)c2)c1                   %Inh                 %       0
2  O=C(Nc1n[nH]c2nc(-c3cccc(O)c3)ccc12)C1CC1                   %Inh                 %      15
3  N#CC1(c2cccc(C(=O)Nc3cccc(Oc4ccc5nc(NC(=O)C6CC6)sc5n4)c3)c2)CC1                   %Inh                 %      15
4  NCCC(NC(=O)c1cc(Br)c(-c2ccnc3[nH]ccc23)s1)c1ccccc1.O=C(O)C(F)(F)F.O=C(O)C(F)(F)F (centres unmarked)                   %Inh                 %       0
5  Cc1ccc(NC(=O)c2ccnc(N3CCCCC3)c2)cc1-c1ccc(C(=O)NCC2CC2)cc1                   %Inh                 %       0

Ask: Requested field: %Inh. Item: `CCNc1nccc(-c2c(-c3ccc(F)cc3)ncn2C2CCN(C)CC2)n1`
Result: 0

Ask: Requested field: %Inh. Item: `CCOc1nccc(-c2c(-c3ccc(F)cc3)ncn2C2CCNCC2)n1`
Result: 34

Ask: Requested field: %Inh. Item: `O=C(Nc1c(F)cccc1F)c1cc(C(=O)c2ccccc2F)c[nH]1`
Result: 0

====

Each entry below carries its recorded %Inh.
# System: ARK5
# Construct: gene NUAK1
# conditions: concentration: 1 μM, replicates: in singlicate; n = 1
The figure you give is taken to be in %; do not add the unit.

> print(dat)
                                   molecule  target  experimental.endpoint  result
1  CC(=O)Nc1cn2nc(Oc3cccc(NC(=O)c4cccc(C(F)(F)F)c4)c3)ccc2n1    ARK5                   %Inh      12
2  O=C(Nc1c(F)cccc1F)c1cc(C(=O)c2ccccc2F)c[nH]1 [GSK1326180]    ARK5                   %Inh       0

Ask: Requested field: %Inh. Item: Cc1ccc(NC(=O)c2ccnc(N3CCCCC3)c2)cc1-c1ccc(C(=O)NCC2CC2)cc1 [GW775610]
Result: 2

Ask: Requested field: %Inh. Item: Cl.Cl.NC(CNC(=O)c1cc(Br)c(-c2ccnc3[nH]ccc23)s1)c1ccccc1 (stereo not shown) [GSK1322949]
Result: 0
